Source: PubChem BioAssay (Tox21)

experiment_notes: qHTS assay to identify small molecule agonists of the endoplasmic reticulum stress response signaling pathway - cell viability counter screen (AID 1159517); note: nearly all actives have a fitted effect of over 50% in size; note: potency is the fitted concentration of half-maximal effect
measurement_context: ESRE-bla HeLa viability, CellTiter-Glo luminescence, 5 h; series mostly up to 61 µM
Inconclusive results are not listed. Active and inactive are the calls of the source. Calls come from the whole dose curve.
experimental_endpoint: Potency

>  <compound>
CC(Cc1ccc(C(C)(C)C)cc1)CN1C[C@@H](C)O[C@@H](C)C1 (some centres undefined)

>  <experimental_endpoint>
Potency

>  <measured>
inactive

$$$$
>  <compound>
CC(C)N1C(=O)N(c2ccccc2)CSC1=NC(C)(C)C

>  <experimental_endpoint>
Potency

>  <measured>
inactive

$$$$
>  <compound>
CCCN(CC)CC1COC2(CCC(C(C)(C)C)CC2)O1 (centres undefined)

>  <experimental_endpoint>
Potency

>  <measured>
inactive

$$$$
>  <compound>
CC1(C)CN=C(NN=C(/C=C/c2ccc(C(F)(F)F)cc2)/C=C/c2ccc(C(F)(F)F)cc2)NC1

>  <experimental_endpoint>
Potency

>  <measured>
49 µM (active)

$$$$

###

measured_on: Nuclear receptor ROR-gamma (Homo sapiens)
experiment_notes: qHTS assay to identify small molecule antagonists of the retinoid-related orphan receptor gamma (ROR-gamma) signaling pathway (AID 1159521; note: nearly all actives have a fitted effect of over 50% in size; note: potency is the fitted concentration of half-maximal effect)
measurement_context: Tet-on RORgamma CHO cells, RORE-luciferase, 16 h; series mostly up to 92.4 µM
Experimental: U.S. Tox21 Program National Center for Advancing Translational Sciences [NCATS] NIH Chemical Genomics Center [NCGC] U.S. Environmental Protection Agency [EPA] National Institutes of Environmental Health Sciences [NIEHS] National Toxicology Program [NTP] U.S. Food and Drug Administration [FDA] […] Reporter gene activity was induced using Doxycycline Hyclate and measured after 16 hr incubation. […]
Records with an inconclusive call do not appear. Activity calls are given as the source filed them. The call rests on the fitted dose curve; in most records, active means well fitted inhibition curve with a large enough effect in the repeat runs; inconclusive means weak or mixed curves, or effect the other way; inactive means no such curve, though single readings can be large or run the other way.

>  <compound>
Nc1ccc(Cl)cc1C(=O)c1ccccc1

>  <Potency>
inactive

$$$$
>  <compound>
N#Cc1ccccc1Cl

>  <Potency>
inactive

$$$$
>  <compound>
CCCCCCCCCC[N+](C)(C)CCCCCCCCCC

>  <Potency>
21.7 µM (active)

$$$$
>  <compound>
Clc1ccc(C(c2ccccc2Cl)C(Cl)(Cl)Cl)cc1 (centres undefined)

>  <Potency>
40.2 µM (active)

$$$$

###

experiment_notes: qHTS assay to identify small molecule antagonists of the vitamin D receptor (VDR) signaling pathway - cell viability counter screen (AID 743225); note: nearly all actives have a fitted effect of over 50% in size; note: potency is the fitted concentration of half-maximal effect
measurement_context: VDR-bla HEK293T viability, CellTiter-Glo luminescence, 16 h; series mostly up to 61 µM
Excerpt: U.S. Tox21 Program National Center for Advancing Translational Sciences [NCATS] NIH Chemical Genomics Center [NCGC] U.S. Environmental Protection Agency [EPA] National Institutes of Environmental Health Sciences [NIEHS] National Toxicology Program [NTP] U.S. Food and Drug Administration [FDA] Tox21 Assay Overview: The vitamin D receptor (VDR), a member of nuclear hormone receptor superfamily, plays a critical role in calcium homeostasis and bone metabolism. […]
Inconclusive results are not listed. Calls of active or inactive are those of the source. Calls follow the shape of the dose curve; as a rule, active = well fitted cell-killing curve with a large enough effect in the repeat runs; inconclusive = weak or mixed curves, or effect the other way; inactive = no such curve, though single readings can be large or run the other way.
experimental_endpoint: Potency

>  <compound>
O=c1[nH]c2ccccc2n1CCCN1CCC(n2c(=O)[nH]c3cc(Cl)ccc32)CC1

>  <experimental_endpoint>
Potency

>  <measured>
inactive

$$$$
>  <compound>
C[C@@H]1CC[C@@]2(OC1)O[C@H]1[C@@H](O)[C@H]3[C@@H]4CC[C@H]5C[C@@H](O[C@@H]6O[C@H](CO)[C@H](O[C@@H]7O[C@H](CO)[C@@H](O)[C@H](O[C@@H]8OC[C@@H](O)[C@H](O)[C@H]8O)[C@H]7O[C@@H]7O[C@H](CO)[C@@H](O)[C@H](O[C@@H]8O[C@H](CO)[C@@H](O)[C@H](O)[C@H]8O)[C@H]7O)[C@H](O)[C@H]6O)[C@H](O)C[C@]5(C)[C@H]4CC[C@]3(C)[C@H]1[C@@H]2C

>  <experimental_endpoint>
Potency

>  <measured>
5.2 µM (active)

$$$$
>  <compound>
CN(C)S(=O)(=O)N(SC(F)(Cl)Cl)c1ccccc1

>  <experimental_endpoint>
Potency

>  <measured>
27.5 µM (active)

$$$$
>  <compound>
CC(=O)O[C@H]1CC[C@@]2(C)C(=CC[C@@H]3[C@@H]2CC[C@]2(C)C(=O)CC[C@@H]32)C1

>  <experimental_endpoint>
Potency

>  <measured>
inactive

$$$$
>  <compound>
c1ccc2c(c1)[nH]c1cnccc12

>  <experimental_endpoint>
Potency

>  <measured>
inactive

$$$$
>  <compound>
CC1(c2ccc(Oc3ccccc3)cc2)OC(=O)N(Nc2ccccc2)C1=O (configuration not stated)

>  <experimental_endpoint>
Potency

>  <measured>
39.1 µM (active)

$$$$
>  <compound>
O=[N+]([O-])c1cc([N+](=O)[O-])c2ccccc2c1

>  <experimental_endpoint>
Potency

>  <measured>
inactive

$$$$
